Each recorded value in this set is attributed to patent US20130035256A1.

target_or_system: M4R (Homo sapiens)
Construct: expressed in transfected cells
assay_comment: Calcium-based assay, calcium flux in cells co-expressing recombinant M4R and modified Gαq
Format: cell-based
experimental_conditions: activity @ 30uM or 30 ug/ml; in presence of EC20 value of Ach; normalized to maximal effect of the orthosteric agonist
metric_name: Calcium-based assay % enh (%)

[[record]]
compound = "COC(=O)c1c(C)[nH]c(C)c1C(=O)c1ccccc1Cc1ccccc1 [FPL 64176]"
target_or_system = "M4R (Homo sapiens)"
quantitative_result = 59.7

[[record]]
compound = "C[C@H]1CCC/C=C/[C@@H]2C[C@H](O)C[C@H]2[C@H](O)/C=C/C(=O)O1 [Brefeldin A]"
target_or_system = "M4R (Homo sapiens)"
quantitative_result = 32.3

[[record]]
compound = "Cc1ccc2c(c1)C(=O)C1(O)CCN(c3ccccc3)C1=N2 (racemic) [(±)-Blebbistatin]"
target_or_system = "M4R (Homo sapiens)"
quantitative_result = 115.1

[[record]]
compound = "O=C1Nc2ccc(I)cc2/C1=C/c1cc(Br)c(O)c(Br)c1 [GW 5074]"
target_or_system = "M4R (Homo sapiens)"
quantitative_result = 151.4

[[record]]
compound = "Nc1c[n+](N2CCOCC2)no1.[Cl-] [SIN-1 chloride]"
target_or_system = "M4R (Homo sapiens)"
quantitative_result = 19.4

[[record]]
compound = "C=C[C@@]1(C)CC(=O)[C@]2(O)[C@@]3(C)[C@@H](O)CCC(C)(C)[C@@H]3[C@H](O)[C@H](OC(C)=O)[C@@]2(C)O1 [FSK]"
target_or_system = "M4R (Homo sapiens)"
quantitative_result = 58.3

[[record]]
compound = "COC(=O)C1=C(C)NC(C)=C([N+](=O)[O-])[C@@H]1c1ccccc1C(F)(F)F [(R)-(+)-Bay K 8644]"
target_or_system = "M4R (Homo sapiens)"
quantitative_result = 77.8

[[record]]
compound = "O=C(N/N=C/c1ccc(O)c(O)c1)c1cc2ccccc2cc1O [Dynamin Inhibitor I]"
target_or_system = "M4R (Homo sapiens)"
quantitative_result = 92.3

[[record]]
compound = "CC[C@H]1/C=C/C=C/C[C@@H](C)[C@H](O)[C@@](C)(O)C(=O)[C@@H](C)[C@H](O)[C@@H](C)C(=O)[C@@H](C)[C@H](O)[C@@H](C)/C=C/C(=O)O[C@@H]2[C@H](C)[C@H](CC1)O[C@]1(CC[C@H](C)[C@H](C[C@@H](C)O)O1)[C@H]2C [Oligomycin]"
target_or_system = "M4R (Homo sapiens)"
quantitative_result = 63.8


###

The reader will find reported Calcium-based assay % inh values listed item by item below.
target_or_system: M4R (Homo sapiens, UniProt P08173)
Construct: expressed in transfected cells
Sequence (P08173 whole entry): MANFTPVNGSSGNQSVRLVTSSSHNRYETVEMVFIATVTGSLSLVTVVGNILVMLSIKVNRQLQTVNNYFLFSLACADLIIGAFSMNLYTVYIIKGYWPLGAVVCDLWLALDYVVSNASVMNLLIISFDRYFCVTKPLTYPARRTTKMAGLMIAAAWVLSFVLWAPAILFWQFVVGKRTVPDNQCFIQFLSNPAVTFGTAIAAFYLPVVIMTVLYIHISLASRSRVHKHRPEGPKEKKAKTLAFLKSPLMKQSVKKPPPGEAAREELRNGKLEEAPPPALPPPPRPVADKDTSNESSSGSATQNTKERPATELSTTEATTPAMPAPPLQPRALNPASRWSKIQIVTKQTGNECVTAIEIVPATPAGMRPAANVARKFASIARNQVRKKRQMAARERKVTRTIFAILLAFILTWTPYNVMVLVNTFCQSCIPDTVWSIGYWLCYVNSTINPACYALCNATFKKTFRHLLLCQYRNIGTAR
assay_comment: Calcium-based assay, calcium flux in cells co-expressing recombinant M4R and modified Gαq
Assay type: cell-based
experimental_conditions: activity @ 30uM or 30 ug/ml; in presence of EC80 of Ach; normalized to maximal effect of the orthosteric agonist
metric_name: Calcium-based assay % inh (%)

[[record]]
molecule = "O=C1Nc2ccc(I)cc2/C1=C/c1cc(Br)c(O)c(Br)c1"
quantitative_result = "−23.8"

[[record]]
molecule = "CCOC(=O)C1=C(C)NC(=S)NC1c1cccc(O)c1 (stereo not drawn)"
quantitative_result = "−16.7"

[[record]]
molecule = "CN(C)CCCn1cc(C2=C(c3c[nH]c4ccccc34)C(=O)NC2=O)c2ccccc21 [GF 109203X]"
quantitative_result = "−10.0"

[[record]]
molecule = "Cn1c2c(c(=O)n(C)c1=O)C(c1cccc(Br)c1)C1=C(N2)c2ccccc2C1=O (stereo not drawn)"
quantitative_result = "−29.2"

[[record]]
molecule = "C[C@H]1CCC/C=C/[C@@H]2C[C@H](O)C[C@H]2[C@H](O)/C=C/C(=O)O1"
quantitative_result = "−19.5"

[[record]]
molecule = "COC(=O)C1=C(C)NC(C)=C([N+](=O)[O-])[C@@H]1c1ccccc1C(F)(F)F [(R)-(+)-Bay K 8644]"
quantitative_result = "−66.5"

[[record]]
molecule = "O=C(N/N=C/c1ccc(O)c(O)c1)c1cc2ccccc2cc1O"
quantitative_result = "−73.7"

[[record]]
molecule = "CC[C@H]1/C=C/C=C/C[C@@H](C)[C@H](O)[C@@](C)(O)C(=O)[C@@H](C)[C@H](O)[C@@H](C)C(=O)[C@@H](C)[C@H](O)[C@@H](C)/C=C/C(=O)O[C@@H]2[C@H](C)[C@H](CC1)O[C@]1(CC[C@H](C)[C@H](C[C@@H](C)O)O1)[C@H]2C"
quantitative_result = "−21.6"

[[record]]
molecule = "C=C[C@@]1(C)CC(=O)[C@]2(O)[C@@]3(C)[C@@H](O)CCC(C)(C)[C@@H]3[C@H](O)[C@H](OC(C)=O)[C@@]2(C)O1"
quantitative_result = "−22.4"


###

target_or_system: chimeric M4R (RGLG-2) (Homo sapiens, UniProt P08173)
Construct: ID; NOs; expressed in transfected cells
Sequence (P08173 with tags, fused parts or gaps): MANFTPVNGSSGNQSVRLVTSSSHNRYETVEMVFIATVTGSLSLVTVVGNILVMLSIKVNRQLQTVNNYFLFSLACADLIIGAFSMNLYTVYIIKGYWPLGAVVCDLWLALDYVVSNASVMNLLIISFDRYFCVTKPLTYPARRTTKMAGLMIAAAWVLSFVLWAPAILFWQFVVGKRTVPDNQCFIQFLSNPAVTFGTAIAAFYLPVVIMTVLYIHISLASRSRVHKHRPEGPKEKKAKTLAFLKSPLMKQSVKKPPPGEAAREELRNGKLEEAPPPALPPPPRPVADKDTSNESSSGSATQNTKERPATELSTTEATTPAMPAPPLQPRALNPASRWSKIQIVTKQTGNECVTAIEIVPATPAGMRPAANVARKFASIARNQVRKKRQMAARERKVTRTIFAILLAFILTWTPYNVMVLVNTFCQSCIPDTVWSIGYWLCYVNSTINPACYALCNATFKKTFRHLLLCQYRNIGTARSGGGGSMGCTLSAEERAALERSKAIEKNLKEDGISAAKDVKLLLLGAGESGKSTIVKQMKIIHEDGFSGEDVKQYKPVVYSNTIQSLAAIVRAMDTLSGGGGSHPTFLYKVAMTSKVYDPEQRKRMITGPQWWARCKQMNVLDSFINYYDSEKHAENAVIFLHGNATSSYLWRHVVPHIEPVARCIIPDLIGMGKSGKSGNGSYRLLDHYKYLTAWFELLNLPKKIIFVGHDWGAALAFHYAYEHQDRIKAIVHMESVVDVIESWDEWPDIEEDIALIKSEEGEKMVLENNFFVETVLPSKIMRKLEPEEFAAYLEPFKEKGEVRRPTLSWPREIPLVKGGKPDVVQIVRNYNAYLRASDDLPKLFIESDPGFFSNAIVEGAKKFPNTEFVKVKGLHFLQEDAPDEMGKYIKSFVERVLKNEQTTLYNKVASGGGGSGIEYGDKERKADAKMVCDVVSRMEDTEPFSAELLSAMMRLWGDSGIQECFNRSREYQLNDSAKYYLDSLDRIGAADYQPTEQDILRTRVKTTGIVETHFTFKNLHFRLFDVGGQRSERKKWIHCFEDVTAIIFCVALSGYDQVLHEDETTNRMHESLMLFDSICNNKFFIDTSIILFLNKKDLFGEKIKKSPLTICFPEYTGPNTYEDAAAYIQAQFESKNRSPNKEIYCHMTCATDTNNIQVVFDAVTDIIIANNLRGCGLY
assay_comment: BRET assay of the invention, cells co-expressing chimeric M4R (RGLG-2) and FP-Gγ9
Type: cell-based
experimental_conditions: activity @ 30uM or 30 ug/ml; compound tested alone; normalized to maximal effect of the orthosteric agonist
Structures can show the parent of a compound that is named as a salt.
metric_name: Invention assay % stim (%)

[[record]]
molecule = "O=C1Nc2ccc(I)cc2/C1=C/c1cc(Br)c(O)c(Br)c1 [GW 5074]"
target_or_system = "chimeric M4R (RGLG-2) (Homo sapiens, UniProt P08173)"
metric_name = "Invention assay % stim"
unit_text = "%"
quantitative_result = "−6.8"

[[record]]
molecule = "CC[C@H]1/C=C/C=C/C[C@@H](C)[C@H](O)[C@@](C)(O)C(=O)[C@@H](C)[C@H](O)[C@@H](C)C(=O)[C@@H](C)[C@H](O)[C@@H](C)/C=C/C(=O)O[C@@H]2[C@H](C)[C@H](CC1)O[C@]1(CC[C@H](C)[C@H](C[C@@H](C)O)O1)[C@H]2C [Oligomycin]"
target_or_system = "chimeric M4R (RGLG-2) (Homo sapiens, UniProt P08173)"
metric_name = "Invention assay % stim"
unit_text = "%"
quantitative_result = 1.8

[[record]]
molecule = "Nc1c[n+](N2CCOCC2)no1.[Cl-] [SIN-1 chloride]"
target_or_system = "chimeric M4R (RGLG-2) (Homo sapiens, UniProt P08173)"
metric_name = "Invention assay % stim"
unit_text = "%"
quantitative_result = "−1.3"

[[record]]
molecule = "C[C@H](CCC(=O)O)C[C@H](C)C[C@H](C)C(=O)/C=C(\\O)[C@H](C)C[C@H](C)C/C=C/[C@@H](C)[C@@H](O)[C@@H](C)[C@@H](O)C[C@@H]1CC[C@@](C)([C@H]2CC[C@@](C)([C@@H](C)O)O2)O1 [Ionomycin calcium salt]"
target_or_system = "chimeric M4R (RGLG-2) (Homo sapiens, UniProt P08173)"
metric_name = "Invention assay % stim"
unit_text = "%"
quantitative_result = "−11.8"

[[record]]
molecule = "CN(C)CCCn1cc(C2=C(c3c[nH]c4ccccc34)C(=O)NC2=O)c2ccccc21 [GF 109203X]"
target_or_system = "chimeric M4R (RGLG-2) (Homo sapiens, UniProt P08173)"
metric_name = "Invention assay % stim"
unit_text = "%"
quantitative_result = 2.2

[[record]]
molecule = "COC(=O)C1=C(C)NC(C)=C([N+](=O)[O-])[C@H]1c1ccccc1C(F)(F)F [(S)-(−)-Bay K 8644]"
target_or_system = "chimeric M4R (RGLG-2) (Homo sapiens, UniProt P08173)"
metric_name = "Invention assay % stim"
unit_text = "%"
quantitative_result = "−8.0"

[[record]]
molecule = "NCCOB(c1ccccc1)c1ccccc1 [2-APB]"
target_or_system = "chimeric M4R (RGLG-2) (Homo sapiens, UniProt P08173)"
metric_name = "Invention assay % stim"
unit_text = "%"
quantitative_result = "−4.7"

[[record]]
molecule = "COC(=O)c1c(C)[nH]c(C)c1C(=O)c1ccccc1Cc1ccccc1 [FPL 64176]"
target_or_system = "chimeric M4R (RGLG-2) (Homo sapiens, UniProt P08173)"
metric_name = "Invention assay % stim"
unit_text = "%"
quantitative_result = "−8.4"

[[record]]
molecule = "Cn1c2c(c(=O)n(C)c1=O)C(c1cccc(Br)c1)C1=C(N2)c2ccccc2C1=O (stereo not drawn) [BPIPP]"
target_or_system = "chimeric M4R (RGLG-2) (Homo sapiens, UniProt P08173)"
metric_name = "Invention assay % stim"
unit_text = "%"
quantitative_result = 1.3

[[record]]
molecule = "O=C1OC2(c3ccccc31)c1ccc(O)c(O)c1Oc1c2ccc(O)c1O [Gallein]"
target_or_system = "chimeric M4R (RGLG-2) (Homo sapiens, UniProt P08173)"
metric_name = "Invention assay % stim"
unit_text = "%"
quantitative_result = 3.9

[[record]]
molecule = "CCCCCC(O)/C=C/C=O (stereo not drawn) [4-Hydroxynonenal]"
target_or_system = "chimeric M4R (RGLG-2) (Homo sapiens, UniProt P08173)"
metric_name = "Invention assay % stim"
unit_text = "%"
quantitative_result = "−14.9"

[[record]]
molecule = "COC(=O)C1=C(C)NC(C)=C(C(=O)OC)C1c1ccccc1[N+](=O)[O-] [Nifedipine]"
target_or_system = "chimeric M4R (RGLG-2) (Homo sapiens, UniProt P08173)"
metric_name = "Invention assay % stim"
unit_text = "%"
quantitative_result = "−15.8"

[[record]]
molecule = "C[C@H]1CCC/C=C/[C@@H]2C[C@H](O)C[C@H]2[C@H](O)/C=C/C(=O)O1 [Brefeldin A]"
target_or_system = "chimeric M4R (RGLG-2) (Homo sapiens, UniProt P08173)"
metric_name = "Invention assay % stim"
unit_text = "%"
quantitative_result = "−2.5"

[[record]]
molecule = "O=C(N/N=C/c1ccc(O)c(O)c1)c1cc2ccccc2cc1O [Dynamin Inhibitor I]"
target_or_system = "chimeric M4R (RGLG-2) (Homo sapiens, UniProt P08173)"
metric_name = "Invention assay % stim"
unit_text = "%"
quantitative_result = "−8.0"

[[record]]
molecule = "Cc1ccc2c(c1)C(=O)C1(O)CCN(c3ccccc3)C1=N2 (racemic) [(±)-Blebbistatin]"
target_or_system = "chimeric M4R (RGLG-2) (Homo sapiens, UniProt P08173)"
metric_name = "Invention assay % stim"
unit_text = "%"
quantitative_result = "−7.2"

